read-out: Monokine induced gamma interferon (MIG), CXCL9 (gene 4283); assay: BSK_BE3C_MIG: BioMAP Diversity Plus: BE3C Assay for Monokine induced gamma interferon (MIG) Biomarker Activity (AID 2283035); details: primary human bronchial epithelial cells; actives raise or lower the signal
Calls of active or inactive are those of the source. How the source made its calls: active means hit-call score of the fitted dose curve at least 0.9, where 1 is the maximum; inactive means score below 0.9.
Assign a class; possible classes are active, inactive

Consider the worked cases shown below.
[[record]]
molecule = "COc1cc(OC)nc(NC(=O)NS(=O)(=O)c2cc(NC=O)ccc2C(=O)N(C)C)n1"
label_class = "inactive"

[[record]]
molecule = "CCC(C)(C)C(=O)OC1=C(c2ccc(Cl)cc2Cl)C(=O)OC12CCCCC2"
label_class = "active"


What classification did `N#Cc1c(Cl)c(Cl)c(Cl)c(C#N)c1Cl` end up with in this test?
active

What classification did `CCOCN(C(=O)CCl)c1c(C)cccc1CC` end up with in this test?
inactive

What classification did `CNC(=O)/C=C(\C)OP(=O)(OC)OC` end up with in this test?
inactive

What classification did `Oc1ccc(Cl)cc1Cc1ccccc1` end up with in this test?
active

---

target: human Serotonin, 5-Hydroxytryptamine Receptor 5A (5HT5A), HTR5A (gene 3361) (UniProt P47898); test: NVS_GPCR_h5HT5A: NovaScreen (NVS) G Protein-Coupled Receptor Assay for human Serotonin, 5-Hydroxytryptamine Receptor 5A (5HT5A) (AID 2283251)
Sequence (P47898 whole entry, looked up): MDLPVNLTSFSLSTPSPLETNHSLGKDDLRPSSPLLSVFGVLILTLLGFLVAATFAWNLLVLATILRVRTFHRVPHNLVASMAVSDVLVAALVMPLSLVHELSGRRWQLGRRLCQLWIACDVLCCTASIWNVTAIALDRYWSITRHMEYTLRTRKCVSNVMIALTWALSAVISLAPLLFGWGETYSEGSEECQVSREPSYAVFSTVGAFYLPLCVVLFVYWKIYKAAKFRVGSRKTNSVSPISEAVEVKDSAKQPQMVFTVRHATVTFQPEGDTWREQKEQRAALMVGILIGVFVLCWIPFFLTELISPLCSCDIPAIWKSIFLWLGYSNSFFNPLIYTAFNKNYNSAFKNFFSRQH
Inconclusive results are not listed. Calls of active or inactive are those of the source. How the source made its calls: active means hit-call score of the fitted dose curve at least 0.9, where 1 is the maximum; inconclusive means response in the unintended direction; inactive means score below 0.9.
Assign a class; possible classes are YES for active, NO for inactive

Consider the worked cases shown below.
[[record]]
compound = "CCCN(CCC)c1c([N+](=O)[O-])cc(C(F)(F)F)cc1[N+](=O)[O-]"
label_class = "YES"

[[record]]
compound = "O=C1c2ccccc2C(=O)N1SC(Cl)(Cl)Cl"
label_class = "NO"

[[record]]
compound = "CCN(CC)C(=O)SCc1ccc(Cl)cc1"
label_class = "NO"


Now for another entry.
What classification did `CCC(C)(C)C(=O)OC1=C(c2ccc(Cl)cc2Cl)C(=O)OC12CCCCC2` end up with in this test?
NO

---

read-out: Cytochrome P450 3A4 (Homo sapiens) (UniProt P08684); experiment: CLD_CYP3A4_6hr: CellzDirect (CLD) Gene Expression Assay for xenobiotic metabolism (CYP3A4) at 6 hours (AID 2283680)
Sequence (P08684 whole entry, looked up): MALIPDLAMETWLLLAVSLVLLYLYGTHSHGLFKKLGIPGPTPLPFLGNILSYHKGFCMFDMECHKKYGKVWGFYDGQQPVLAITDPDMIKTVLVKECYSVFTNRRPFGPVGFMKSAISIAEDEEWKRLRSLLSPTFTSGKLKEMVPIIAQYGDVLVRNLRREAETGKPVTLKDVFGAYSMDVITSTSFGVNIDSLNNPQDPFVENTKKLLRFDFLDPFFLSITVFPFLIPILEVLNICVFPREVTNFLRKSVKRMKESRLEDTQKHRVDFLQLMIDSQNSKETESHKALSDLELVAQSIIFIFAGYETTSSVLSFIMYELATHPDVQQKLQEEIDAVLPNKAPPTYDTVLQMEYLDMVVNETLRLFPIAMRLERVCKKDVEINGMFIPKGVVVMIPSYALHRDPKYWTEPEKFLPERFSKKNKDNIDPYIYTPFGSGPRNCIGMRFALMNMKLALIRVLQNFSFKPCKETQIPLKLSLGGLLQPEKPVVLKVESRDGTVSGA
Inconclusive results are not listed. The source made the active and inactive calls. The calls were made as follows: active = hit-call score of the fitted dose curve at least 0.9, where 1 is the maximum; inconclusive = response in the unintended direction; inactive = score below 0.9.
Assign a class; possible classes are TRUE = active, FALSE = inactive

Consider the worked cases shown below.
[[record]]
molecule = "CCCN(CCC)c1c([N+](=O)[O-])cc(C(F)(F)F)cc1[N+](=O)[O-]"
label_class = "FALSE"

[[record]]
molecule = "COP(=O)(OC)OC=C(Cl)Cl"
label_class = "FALSE"

[[record]]
molecule = "CC(C)(C)C(O)/C(=C\\c1ccc(Cl)cc1Cl)n1cncn1 (stereo not drawn)"
label_class = "TRUE"

[[record]]
molecule = "CC[C@H](C)[C@H]1O[C@]2(C=C[C@@H]1C)C[C@@H]1C[C@@H](C/C=C(\\C)[C@@H](O[C@H]3C[C@H](OC)[C@@H](O[C@H]4C[C@H](OC)[C@@H](O)[C@H](C)O4)[C@H](C)O3)[C@@H](C)/C=C/C=C3\\CO[C@@H]4[C@H](O)C(C)=C[C@@H](C(=O)O1)[C@]34O)O2 (tested in a mixture with another compound)"
label_class = "FALSE"

[[record]]
molecule = "Cc1cc(C)nc(NC(=O)NS(=O)(=O)c2ccccc2C(=O)OC2COC2)n1"
label_class = "FALSE"

[[record]]
molecule = "CCCN(CCOc1c(Cl)cc(Cl)cc1Cl)C(=O)n1ccnc1"
label_class = "FALSE"

[[record]]
molecule = "O=C(O)COc1ccc(Cl)cc1Cl"
label_class = "TRUE"


Now for another entry.
What classification did `C#CCN1C(=O)COc2cc(F)c(N3C(=O)C4=C(CCCC4)C3=O)cc21` end up with in this test?
FALSE

---

target: Estrogen receptor (Homo sapiens) (UniProt P03372); assay: CCTE_Deisenroth_AIME_384WELL_LUC_Active: CCTE's 384-well Estrogen Receptor Transactivation Assay with AIME metabolic competence (ERTA luciferase; metabolism positive), Deisenroth Lab (AID 2284030)
Sequence (P03372 whole entry, looked up): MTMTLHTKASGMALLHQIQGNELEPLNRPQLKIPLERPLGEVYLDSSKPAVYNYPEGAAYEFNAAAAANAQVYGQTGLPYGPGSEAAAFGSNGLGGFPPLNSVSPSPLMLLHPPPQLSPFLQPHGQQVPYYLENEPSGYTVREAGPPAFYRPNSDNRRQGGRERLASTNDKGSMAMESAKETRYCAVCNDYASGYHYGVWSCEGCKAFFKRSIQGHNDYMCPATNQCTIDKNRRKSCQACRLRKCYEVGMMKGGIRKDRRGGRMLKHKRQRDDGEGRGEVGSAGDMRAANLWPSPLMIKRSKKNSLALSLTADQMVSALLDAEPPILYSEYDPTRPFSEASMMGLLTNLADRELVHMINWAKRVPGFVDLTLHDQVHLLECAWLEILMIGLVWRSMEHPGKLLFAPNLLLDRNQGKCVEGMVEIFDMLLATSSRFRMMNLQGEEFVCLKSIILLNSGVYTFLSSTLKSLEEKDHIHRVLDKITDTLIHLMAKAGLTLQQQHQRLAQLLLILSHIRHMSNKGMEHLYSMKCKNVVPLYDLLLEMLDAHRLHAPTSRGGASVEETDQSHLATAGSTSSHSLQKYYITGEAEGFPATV
Inconclusive results are not listed. Calls of active or inactive are those of the source. How the source made its calls: active means hit-call score of the fitted dose curve at least 0.9, where 1 is the maximum; inconclusive means response in the unintended direction; inactive means score below 0.9.
Assign a class; possible classes are TRUE = active, FALSE = inactive

Consider the worked cases shown below.
[[record]]
molecule = "CNC(=O)Oc1ccccc1OC(C)C"
label_class = "FALSE"

[[record]]
molecule = "CNC(=O)/C=C(\\C)OP(=O)(OC)OC"
label_class = "FALSE"

[[record]]
molecule = "CCc1ccc(C(=O)NN(C(=O)c2cc(C)cc(C)c2)C(C)(C)C)cc1"
label_class = "FALSE"

[[record]]
molecule = "CCCN(CCC)c1c([N+](=O)[O-])cc(C(F)(F)F)cc1[N+](=O)[O-]"
label_class = "FALSE"


Now for another entry.
What classification did O=S1OCC2C(CO1)C1(Cl)C(Cl)=C(Cl)C2(Cl)C1(Cl)Cl (stereo not given) end up with in this test?
TRUE

---

Biological target: human Janus Kinase 2 (Jak2), JAK2 (gene 3717) (UniProt O60674)
Sequence (O60674 whole entry, looked up): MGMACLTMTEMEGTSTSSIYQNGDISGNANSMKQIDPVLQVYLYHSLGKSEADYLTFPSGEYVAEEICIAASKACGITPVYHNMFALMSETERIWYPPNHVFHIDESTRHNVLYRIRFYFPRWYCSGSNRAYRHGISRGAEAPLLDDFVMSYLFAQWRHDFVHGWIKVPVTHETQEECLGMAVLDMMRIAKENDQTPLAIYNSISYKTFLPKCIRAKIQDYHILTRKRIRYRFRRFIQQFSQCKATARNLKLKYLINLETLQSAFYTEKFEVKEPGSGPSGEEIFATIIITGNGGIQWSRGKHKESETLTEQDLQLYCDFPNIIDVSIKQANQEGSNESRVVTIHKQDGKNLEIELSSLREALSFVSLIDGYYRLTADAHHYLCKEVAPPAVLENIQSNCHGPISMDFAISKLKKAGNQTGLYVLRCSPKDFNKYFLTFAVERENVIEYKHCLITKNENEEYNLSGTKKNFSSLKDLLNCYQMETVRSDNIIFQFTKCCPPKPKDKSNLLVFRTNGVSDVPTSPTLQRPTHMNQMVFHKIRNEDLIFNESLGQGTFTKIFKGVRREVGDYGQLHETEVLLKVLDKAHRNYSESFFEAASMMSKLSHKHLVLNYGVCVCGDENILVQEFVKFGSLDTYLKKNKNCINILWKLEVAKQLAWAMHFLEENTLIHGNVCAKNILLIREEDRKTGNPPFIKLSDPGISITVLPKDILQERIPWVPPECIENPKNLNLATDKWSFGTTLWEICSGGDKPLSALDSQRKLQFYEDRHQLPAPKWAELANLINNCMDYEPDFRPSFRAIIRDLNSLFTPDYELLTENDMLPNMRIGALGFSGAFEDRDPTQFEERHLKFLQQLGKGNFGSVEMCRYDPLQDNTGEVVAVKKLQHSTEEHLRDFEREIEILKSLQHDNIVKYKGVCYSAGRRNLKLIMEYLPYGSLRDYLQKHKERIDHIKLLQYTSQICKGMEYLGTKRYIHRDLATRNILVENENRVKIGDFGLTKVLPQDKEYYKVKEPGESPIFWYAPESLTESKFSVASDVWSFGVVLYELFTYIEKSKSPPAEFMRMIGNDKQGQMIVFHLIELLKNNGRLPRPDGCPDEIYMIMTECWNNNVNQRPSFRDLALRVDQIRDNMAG
Assay: NVS_ENZ_hJak2: NovaScreen (NVS) Enzymatic Assay for human Janus Kinase 2 (Jak2) (AID 2283169)
Protocol: NVS_ENZ_hJak2 is a biochemical, single-readout assay that uses extracted gene-proteins in a cell-free assay. Measurements were taken 1 hour after chemical dosing in a 384-well plate.NVS_ENZ_hJak2 is one of one assay component(s) measured or calculated from the NVS_ENZ_hJak2 assay. […] This assay endpoint, NVS_ENZ_hJak2, was analyzed in the positive analysis fitting direction relative to DMSO as the negative control and baseline of activity. […]
Inconclusive results are not listed. The source made the active and inactive calls. Rule for the calls: active = hit-call score of the fitted dose curve at least 0.9, where 1 is the maximum; inconclusive = response in the unintended direction; inactive = score below 0.9.
Assign a class; possible classes are y for active, n for inactive

[[record]]
compound = "CC[C@H](C)[C@H]1O[C@]2(C=C[C@@H]1C)C[C@@H]1C[C@@H](C/C=C(\\C)[C@@H](O[C@H]3C[C@H](OC)[C@@H](O[C@H]4C[C@H](OC)[C@@H](O)[C@H](C)O4)[C@H](C)O3)[C@@H](C)/C=C/C=C3\\CO[C@@H]4[C@H](O)C(C)=C[C@@H](C(=O)O1)[C@]34O)O2 (tested in a mixture with another compound)"
label_class = "y"

[[record]]
compound = "COC(=O)c1ccccc1CS(=O)(=O)NC(=O)Nc1nc(OC)cc(OC)n1"
label_class = "n"

[[record]]
compound = "CC(C)(C)C(O)C(Oc1ccc(Cl)cc1)n1cncn1 (centres undefined)"
label_class = "n"


What classification did `Oc1cc(Cl)ccc1Oc1ccc(Cl)cc1Cl` end up with in this test?
n

---

test system: turtle Estrogen Receptor (ESR1), gene 101933533; experiment: ATG_trERa_XSP1: Attagene TRANS-FACTORIAL Multi-Species (XSP1) HepG2 Assay for turtle Estrogen Receptor (ESR1) (AID 2283781)
Records with an inconclusive call do not appear. Activity calls are given as the source filed them. How the source made its calls: active means hit-call score of the fitted dose curve at least 0.9, where 1 is the maximum; inconclusive means response in the unintended direction; inactive means score below 0.9.
For each entry below, report its AC50 value.

As a guide, the following entries are already answered.
[[record]]
compound = "COP(=S)(OC)Oc1ccc(SC)c(C)c1"
measured_parameter = "AC50"
meas_value = "26.6 µM (active)"

[[record]]
compound = "CC1(C)C(C=C(Cl)Cl)C1C(=O)OC(C#N)c1ccc(F)c(Oc2ccccc2)c1 (centres undefined)"
measured_parameter = "AC50"
meas_value = "27.5 µM (active)"

[[record]]
compound = "Oc1cc(Cl)ccc1Oc1ccc(Cl)cc1Cl"
measured_parameter = "AC50"
meas_value = "5.85 µM (active)"


Here is the next item to consider.
Would you kindly share the measured AC50 for O=S1OCC2C(CO1)C1(Cl)C(Cl)=C(Cl)C2(Cl)C1(Cl)Cl (centres undefined) ?
1.98 µM (active)

---

read-out: Urokinase-type plasminogen activator receptor (uPAR), PLAUR (gene 5329); experiment: BSK_CASM3C_uPAR: BioMAP Diversity Plus: CASM3C Assay for Urokinase-type plasminogen activator receptor (uPAR) Biomarker Activity (AID 2283054); settings: primary human coronary artery smooth muscle cells; actives raise or lower the signal;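 further: cell-surface uPAR protein level quantified by ELISA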
Active and inactive are the calls of the source. The calls were made as follows: active = hit-call score of the fitted dose curve at least 0.9, where 1 is the maximum; inactive = score below 0.9.
Assign a class; possible classes are YES for active, NO for inactive

Consider the worked cases shown below.
[[record]]
compound = "CC(C)N(C(=O)COc1nnc(C(F)(F)F)s1)c1ccc(F)cc1"
label_class = "NO"

[[record]]
compound = "COc1cc(OC)nc(NC(=O)NS(=O)(=O)c2cc(NC=O)ccc2C(=O)N(C)C)n1"
label_class = "NO"

[[record]]
compound = "CCCN(CCC)c1c([N+](=O)[O-])cc(C(F)(F)F)cc1[N+](=O)[O-]"
label_class = "NO"

[[record]]
compound = "CCC(C)(NC(=O)c1cc(Cl)c(C)c(Cl)c1)C(=O)CCl (centres undefined)"
label_class = "YES"


What classification did `COC(=O)c1ccccc1CS(=O)(=O)NC(=O)Nc1nc(OC)cc(OC)n1` end up with in this test?
NO

What classification did `COP(=S)(OC)Oc1ccc(SC)c(C)c1` end up with in this test?
NO

What classification did `O=C(O)C(F)(F)C(F)(F)C(F)(F)C(F)(F)C(F)(F)C(F)(F)C(F)(F)F` end up with in this test?
NO

What classification did `CNC(=O)/C=C(\C)OP(=O)(OC)OC` end up with in this test?
NO

What classification did `COP(=S)(OC)Oc1ccc([N+](=O)[O-])cc1` end up with in this test?
NO

What classification did CC1(C)C(C=C(Cl)Cl)C1C(=O)OC(C#N)c1ccc(F)c(Oc2ccccc2)c1 (centres undefined) end up with in this test?
NO
